// provenance: patent US8778966B2

molecular target: Human PARP-1 enzyme (Homo sapiens, UniProt P09874); construct: purchased Trevigen; test: In vitro Scintillation Proximity Assay (SPA) for PARP-1 inhibitory activity; type: biochemical; conditions: read-out: in vitro SPA assay PARP-1 pIC50 (converted)
Sequence (P09874 whole entry): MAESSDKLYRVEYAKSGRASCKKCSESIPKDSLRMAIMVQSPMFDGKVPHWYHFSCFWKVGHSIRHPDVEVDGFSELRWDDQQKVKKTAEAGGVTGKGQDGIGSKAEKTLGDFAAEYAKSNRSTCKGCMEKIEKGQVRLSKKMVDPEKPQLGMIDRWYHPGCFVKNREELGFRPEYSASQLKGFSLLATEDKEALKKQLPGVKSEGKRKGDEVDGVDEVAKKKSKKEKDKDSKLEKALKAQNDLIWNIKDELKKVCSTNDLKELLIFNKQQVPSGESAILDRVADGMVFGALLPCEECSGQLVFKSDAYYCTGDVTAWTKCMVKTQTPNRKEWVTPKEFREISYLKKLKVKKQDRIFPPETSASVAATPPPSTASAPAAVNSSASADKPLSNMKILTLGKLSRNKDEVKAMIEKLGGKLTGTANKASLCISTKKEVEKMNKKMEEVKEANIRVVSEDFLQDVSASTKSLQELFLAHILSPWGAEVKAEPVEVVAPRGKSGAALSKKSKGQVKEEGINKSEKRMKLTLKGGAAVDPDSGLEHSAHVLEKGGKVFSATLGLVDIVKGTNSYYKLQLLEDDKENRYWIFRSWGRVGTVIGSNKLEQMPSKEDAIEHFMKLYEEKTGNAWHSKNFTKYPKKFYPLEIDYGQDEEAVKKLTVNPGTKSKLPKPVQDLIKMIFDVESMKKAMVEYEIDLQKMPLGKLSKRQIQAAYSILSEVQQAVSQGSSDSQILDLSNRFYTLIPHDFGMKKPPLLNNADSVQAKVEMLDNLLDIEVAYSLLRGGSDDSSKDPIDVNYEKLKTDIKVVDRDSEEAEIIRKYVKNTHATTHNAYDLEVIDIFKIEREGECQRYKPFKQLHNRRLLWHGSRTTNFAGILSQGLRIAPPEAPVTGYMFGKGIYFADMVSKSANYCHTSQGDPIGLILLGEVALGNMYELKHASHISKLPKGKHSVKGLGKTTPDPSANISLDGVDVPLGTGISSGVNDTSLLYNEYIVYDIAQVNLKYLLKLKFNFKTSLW
Assay endpoint: log10 IC50 (log10 of the value in µM)
Annotation: log10 of IC50, µM basis.

The examples below pair each entry with its known result.
| Compound | Target or test system | log10 IC50 |
| --- | --- | --- |
| CCc1cc2ccc(C(C)(C#N)Cc3ccc(OC)nc3)cc2[nH]c1=O (centres unmarked) | Human PARP-1 enzyme (Homo sapiens, UniProt P09874) | -1.00 |
| CCc1cc2ccc(C(C)(C#N)Cc3cccnc3)cc2[nH]c1=O (centres unmarked) | Human PARP-1 enzyme (Homo sapiens, UniProt P09874) | -1.40 |
| CCc1cc2ccc(C(C)(C#N)C3CCc4ccc(Br)cc43)cc2[nH]c1=O (single isomer, unassigned) [Compound 380] | Human PARP-1 enzyme (Homo sapiens, UniProt P09874) | -0.90 |
| CCc1cc2ccc(C(C)(C#N)Cc3cc(C(F)(F)F)cc(C(F)(F)F)c3)cc2[nH]c1=O (centres unmarked) | Human PARP-1 enzyme (Homo sapiens, UniProt P09874) | 0.20 |
| CCc1cc2ccc(C(C)(C#N)CCOc3ccc(OC)cc3)cc2[nH]c1=O (centres unmarked) | Human PARP-1 enzyme (Homo sapiens, UniProt P09874) | -0.80 |
| CCc1cc2ccc(C(C)(C#N)Cc3cc(OC)nc(C)n3)cc2[nH]c1=O (centres unmarked) | Human PARP-1 enzyme (Homo sapiens, UniProt P09874) | -0.90 |
| CCc1cc2ccc(C(C)(C#N)C3CCc4ccc(Br)cc43)cc2[nH]c1=O (single isomer, unassigned) [Compound 381] | Human PARP-1 enzyme (Homo sapiens, UniProt P09874) | -1.10 |
| CCc1cc2ccc(C(C)(C#N)Cc3cccc(OC)c3F)cc2[nH]c1=O (centres unmarked) | Human PARP-1 enzyme (Homo sapiens, UniProt P09874) | -1.60 |
| CCc1cc2ccc(C(C)(C#N)Cc3c4ccccc4nn3C)cc2[nH]c1=O (centres unmarked) | Human PARP-1 enzyme (Homo sapiens, UniProt P09874) | -0.80 |
| Cc1cc2ccc([C@@](C)(C#N)Cc3cccc(C#N)c3)cc2[nH]c1=O | Human PARP-1 enzyme (Homo sapiens, UniProt P09874) | -0.30 |

Lab note: each compound below needs its log10 IC50 filled in.
1. CCc1cc2ccc(C(C)(C#N)Cc3cc(Cl)ccc3Cl)cc2[nH]c1=O (centres unmarked)
2. CCc1cc2ccc(C(C#N)(CC)Cc3cccc(C#N)c3)cc2[nH]c1=O (centres unmarked)
3. CCc1cc2ccc(C(C)(C#N)Cc3c(C)c(C)cc(C)c3C)cc2[nH]c1=O (centres unmarked)
4. CCc1cc2ccc(C(C)(C#N)Cc3nc(Cl)cc(N(C)C)n3)cc2[nH]c1=O (centres unmarked)
5. CCc1cc2ccc(C(C)(C#N)CCOc3ccc4ccccc4c3)cc2[nH]c1=O (centres unmarked)

A.
0.00
-1.70
0.20
-1.10
0.20

Go through the items and report each one's log10 IC50.
1. CCc1cc2ccc(C(C)(C#N)CCOc3ccc(C(C)(C)C)cc3)cc2[nH]c1=O (centres unmarked)
2. CCc1cc2ccc(C(C)(C#N)Cc3nc(C)cc(OC)n3)cc2[nH]c1=O (centres unmarked)

A.
0.20
-1.00

----------
Exercise: state measured IC50 for each of the compounds provided.
test system: PC-3 cells; assay: Antiproliferative activity, Alamar Blue assay, PC-3 cells; assay type: cell-based, human; conditions: Homo sapiens, PC-3, PC3 cells, Alamar Blue; read-out: PC3 antiproliferative activity pIC50 (converted)
Answers are plain numbers, in µM.

Examples with answers:
| Compound | Readout units | Recorded result |
| --- | --- | --- |
| CCc1cc2ccc(C(C)(C#N)CN(C)Cc3ccc(C#N)cc3)cc2[nH]c1=O (stereo not drawn) | µM | 0.501 |
| CCc1cc2ccc(C(C)(C#N)Cc3cc(OC)c(OC)c(OC)c3)cc2[nH]c1=O (stereo not drawn) | µM | 0.316 |
| CCc1cc2ccc(C(C)(C#N)CN3CCN(c4ccccn4)CC3)cc2[nH]c1=O (stereo not drawn) | µM | 2 |
| CCOC(=O)c1cccc(CC(C)(C#N)c2ccc3cc(CC)c(=O)[nH]c3c2)n1 (stereo not drawn) | µM | 6.31 |
| C#Cc1cccc(C[C@@](C)(C#N)c2ccc3cc(CC)c(=O)[nH]c3c2)c1 | µM | 0.1 |

// next entry
Q. If you can, please state the reported IC50 value of CCc1cc2ccc([C@](C)(C#N)Cc3cc(OC)nc(C)n3)cc2[nH]c1=O (single isomer, unassigned) .
A. 0.631

----------
system: PC3 cells; test: EB1 Comet (microtubule disruption) assay; assay type: cell-based, human; settings: Homo sapiens, PC-3, 1 h, 1 hour treatment, read-out: EB1 pLAC (converted)
Assay endpoint: minimal effective concentration (µM)
Numbers only, in µM.

| Molecule | minimal effective concentration / µM |
| --- | --- |
| Cc1cc2ccc(C(C)(C#N)C3CCc4ccc(Br)cc43)cc2[nH]c1=O (stereo not drawn) [Compound 249] | 0.178 |
| CCc1cc2ccc(C(C)(C#N)Cc3cccc(N4CCCC4)n3)cc2[nH]c1=O (stereo not drawn) [Compound 226] | 3.16 |
| CCc1cc2ccc([C@@](C)(C#N)[C@H]3CCOc4ccccc43)cc2[nH]c1=O (single isomer, unassigned) [Compound 395] | 0.316 |
| CCc1cc2ccc(C(C)(C#N)CCOc3ccccc3)cc2[nH]c1=O (stereo not drawn) [Compound 145] | 1 |
| CCc1cc2ccc(C(C)(C#N)Cc3cc(N(C)C)nc(C#N)n3)cc2[nH]c1=O (stereo not drawn) [Compound 317] | 1 |

Go through the list and state minimal effective concentration for each entry.
1. CCc1cc2ccc(C(C)(C#N)CN3CCN(c4ccc(C#N)cn4)CC3)cc2[nH]c1=O (stereo not drawn) [Compound 377]
2. CCc1cc2ccc(C(C)(C#N)Cc3c(F)ccc(C)c3F)cc2[nH]c1=O (stereo not drawn) [Compound 41]

A.
1: 1; 2: 0.316

I need minimal effective concentration for every entry listed below, if you could help.
1. CCc1cc2ccc(C(C)(C#N)Cc3cc(OC)ccc3F)cc2[nH]c1=O (stereo not drawn) [Compound 171]
2. CCc1cc2ccc(C(C)(C#N)Cc3cccc(CCS(C)(=O)=O)c3)cc2[nH]c1=O (stereo not drawn) [Compound 178]

A.
0.1
3.16

Your task in this section: give minimal effective concentration for each listed record.
1. CCc1cc2ccc([C@](C)(C#N)[C@H](C)c3ccccc3)cc2[nH]c1=O [Compound 200]
2. CCc1cc2ccc(C(C)(C#N)Cc3ccc(OC)c(C#N)c3)cc2[nH]c1=O (stereo not drawn) [Compound 77]
3. CCc1cc2ccc(C(C)(C#N)CNCc3cccc(C#N)c3)cc2[nH]c1=O (stereo not drawn) [Compound 301]
4. CCc1cc2ccc(C(F)(C#N)Cc3ccccc3)cc2[nH]c1=O (stereo not drawn) [Compound 187]
5. CCc1cc2ccc(C(C)(C#N)Cc3ccc(C(F)(F)F)nc3C)cc2[nH]c1=O (stereo not drawn) [Compound 340]

A.
1: 0.316; 2: 1; 3: 3.16; 4: 5.62; 5: 10

Below is a list of molecules. For each, state its recorded minimal effective concentration.
1. CCc1cc2ccc(C(C)(C#N)CCOc3ccccc3F)cc2[nH]c1=O (stereo not drawn) [Compound 278]
2. CCc1cc2ccc(C(C)(C#N)Cc3ccccc3OC(F)(F)F)cc2[nH]c1=O (stereo not drawn) [Compound 102]
3. CCc1cc2ccc(C(C)(C#N)Cc3cccc(Cl)c3F)cc2[nH]c1=O (stereo not drawn) [Compound 130]
4. CCc1cc2ccc(C(C)(C#N)Cc3cnc(Cl)nc3Cl)cc2[nH]c1=O (stereo not drawn) [Compound 306]
5. CCc1cc2ccc(C(C)(C#N)Cc3cccc(/C=N/OC)c3)cc2[nH]c1=O (stereo not drawn) [Compound 185]
6. CCc1cc2ccc(C(C)(C#N)Cc3cccc(OCCS(C)(=O)=O)c3)cc2[nH]c1=O (stereo not drawn) [Compound 201]
7. CCc1cc2ccc(C(C)(C#N)Cc3ccc(OC)cc3)cc2[nH]c1=O (stereo not drawn) [Compound 119]

A.
[1, 3.16, 0.1, 3.16, 0.1, 0.562, 3.16]

Give one value of minimal effective concentration per listed molecule.
1. CCc1cc2ccc(C(C)(C#N)CCOc3ccc([N+](=O)[O-])cc3)cc2[nH]c1=O (stereo not drawn) [Compound 54]
2. CCc1cc2ccc(C(C)(C#N)Cc3cccc(C)n3)cc2[nH]c1=O (stereo not drawn) [Compound 343]
3. CCc1cc2ccc(C(C)(C#N)Cc3cccc(Cl)n3)cc2[nH]c1=O (stereo not drawn) [Compound 310]

A.
1: 0.316; 2: 3.16; 3: 1
